From: PubChem BioAssay (NCI)

Exercise: state measured growth inhibition for each of the compounds provided.
- ASSAY_COMMENT: NCI Yeast Anticancer Drug Screen. Data for the bub3 strain (AID 167)
- SETTINGS: S. cerevisiae bub3 mutant strain, at 50.0 µM (retest, dose inferred, filed as 5.0), hits give high values
The panel holds about 79,000 compounds, 15% with a hit somewhere; the sample as a whole holds those more often.
Value expressed in %; do not type the unit.

INPUT: Supply measured growth inhibition of Cc1cccc(Cc2ccc(Cl)cc2)c1O in your reply.
OUTPUT: 99

INPUT: Supply measured growth inhibition of O=C1OC(=O)c2ccc([N+](=O)[O-])c3cccc1c23 in your reply.
OUTPUT: 16

INPUT: Supply measured growth inhibition of CCCCCCCCCCCCCCCC[N+](C)(C)CC(=O)O in your reply.
OUTPUT: 96

====

- ASSAY_COMMENT: NCI Yeast Anticancer Drug Screen. Data for the bub3 strain (AID 167)
- SETTINGS: S. cerevisiae bub3 mutant strain, at 5.0 µM (retest, dose inferred, filed as 0.5), hits give high values
Compounds without any hit were thinned out: in the full panel of roughly 79,000, 15% have a hit.
Exercise: state measured growth inhibition for each of the compounds provided.
Value expressed in %; do not type the unit.

INPUT: Supply measured growth inhibition of C[n+]1c(-c2ccc(/C=N/Nc3ccnc(N/N=C/c4ccc(-c5cn6ccccc6[n+]5C)cc4)n3)cc2)cn2ccccc21 in your reply.
OUTPUT: 99

INPUT: Supply measured growth inhibition of Cc1ccc(S(=O)(=O)NNC(C[N+](=O)[O-])c2ccccc2)cc1 (stereo not given) in your reply.
OUTPUT: 17

INPUT: Supply measured growth inhibition of COc1ccc2c(c1)c1c(C)c3cnccc3c(C)c1n2CCCN in your reply.
OUTPUT: 13

INPUT: Supply measured growth inhibition of CC12CCC(c3sc(N)c(C#N)c31)C2(C)C (stereo not given) in your reply.
OUTPUT: -15

INPUT: Supply measured growth inhibition of Oc1c(Br)cc(Br)cc1C=Nc1ccc(Br)cc1 in your reply.
OUTPUT: 73

====

- ASSAY_COMMENT: NCI Yeast Anticancer Drug Screen. Data for the mlh1 rad18 strain (AID 175)
- SETTINGS: S. cerevisiae mlh1 rad18 strain growth inhibition; at 50.0 µM; hits give high values
The panel holds about 79,000 compounds, 15% with a hit somewhere; the sample as a whole holds those more often.
Returns MET if the recorded growth inhibition is greater than or equal to 90%, and NOT MET otherwise.

INPUT: Entry COc1cc(C(c2cc3c(cc2O)OCO3)N2CCN(C(c3cc(OC)c(O)c(OC)c3)c3cc4c(cc3O)OCO4)CC2)cc(OC)c1O (centres undefined) : is its growth inhibition no less than 90%?
OUTPUT: NOT MET

INPUT: Entry C#CCN(N=O)C(=O)NCCCC(NC(C)=O)C(=O)NCc1ccccc1 (centres undefined) : is its growth inhibition no less than 90%?
OUTPUT: NOT MET

INPUT: Entry CCCCCCCCCCCCS : is its growth inhibition no less than 90%?
OUTPUT: NOT MET

INPUT: Entry CC12CCC(=O)C=C1CCC1C2C(O)CC2(C)C(c3csc(N)n3)CCC12 (centres undefined) : is its growth inhibition no less than 90%?
OUTPUT: MET

====

- ASSAY_COMMENT: NCI Yeast Anticancer Drug Screen. Data for the mlh1 rad18 strain (AID 175)
- SETTINGS: S. cerevisiae mlh1 rad18 strain growth inhibition; at 50.0 µM (retest, dose inferred, filed as 5.0); hits give high values
Compounds without any hit were thinned out: in the full panel of roughly 79,000, 15% have a hit.
Exercise: state measured growth inhibition for each of the compounds provided.
Value expressed in %; do not type the unit.

INPUT: Supply measured growth inhibition of CCN(CC)CCOc1ccc(C=C2c3ccccc3-c3ccccc32)cc1 in your reply.
OUTPUT: 99

INPUT: Supply measured growth inhibition of O=C1C(Cl)=C(NCCC2CCCN3CCCCC23)C(=O)c2ccccc21 (stereo unspecified) in your reply.
OUTPUT: 27

INPUT: Supply measured growth inhibition of c1ccc2c(c1)OCC(CN1CCN(CC3COc4ccccc4O3)CC1)O2 (stereo unspecified) in your reply.
OUTPUT: 60

INPUT: Supply measured growth inhibition of COC1/C=C\OC2(C)Oc3c(C)c(O)c4c(c3C2=O)C(=O)C=C(NC(=O)C(C)=C/C=C\C(C)C(O)C(C)C2OC(C)(C)OC(C1C)C2C)C4=O (stereo unspecified) in your reply.
OUTPUT: 77

INPUT: Supply measured growth inhibition of Cc1ccc(SC2=C(N(C)C)C(=O)c3ccccc3C2=O)cc1 in your reply.
OUTPUT: 89

INPUT: Supply measured growth inhibition of O=[N+]([O-])c1cccc(Cl)c1C(Nc1nncs1)Nc1nncs1 in your reply.
OUTPUT: 82

INPUT: Supply measured growth inhibition of COc1c(O)ccc2c1CN1CCc3cc4c(cc3C1C2)OCO4 (stereo unspecified) in your reply.
OUTPUT: 35

INPUT: Supply measured growth inhibition of O=C(c1ccccc1)N(C(=S)N(C(=O)c1ccccc1)c1ccccc1)c1ccccc1 in your reply.
OUTPUT: -3

INPUT: Supply measured growth inhibition of Cc1ccc(S(=O)(=O)Nn2c(S)c(C#N)c(-c3ccc(Cl)cc3)c(C#N)c2=O)cc1 in your reply.
OUTPUT: 56

INPUT: Supply measured growth inhibition of N#Cc1sc2c(c1OC(=O)c1ccc(Cl)cc1)c(=O)n(-c1ccccc1)c(=S)n2-c1ccccc1 in your reply.
OUTPUT: 1

INPUT: Supply measured growth inhibition of CCN(CC)CCCCCCNc1cc(Cl)cc2cccnc12 in your reply.
OUTPUT: 84

====

- ASSAY_COMMENT: NCI Yeast Anticancer Drug Screen. Data for the mlh1 rad18 strain (AID 175)
- SETTINGS: S. cerevisiae mlh1 rad18 strain growth inhibition; at 50.0 µM; hits give high values
About 79,000 compounds went through this panel and 15% of them were active in at least one assay; those are over-represented in the sample as a whole.
MEASURE: growth inhibition (%)
Value expressed in %; do not type the unit.

INPUT: Supply measured growth inhibition of O=C(O)c1ccc(NCc2c(O)ccc3ccccc23)cc1 in your reply.
OUTPUT: 19.1

INPUT: Supply measured growth inhibition of Cc1ccc(N2C(=O)CSC2=S)cc1Br in your reply.
OUTPUT: 95.2

INPUT: Supply measured growth inhibition of O=C(O)c1ccccc1-c1c2ccc(=O)c(Br)c-2oc2c(Br)c(O)ccc12 in your reply.
OUTPUT: 97.8

INPUT: Supply measured growth inhibition of O=c1[nH]c2c([N+](=O)[O-])cc(Cl)cc2nc1/C=C(\O)c1ccc(F)cc1 in your reply.
OUTPUT: 87.3

INPUT: Supply measured growth inhibition of CCCC(=O)Nc1cc([N+](=O)[O-])ccc1O in your reply.
OUTPUT: 98

INPUT: Supply measured growth inhibition of Nc1ncnc(N2CCOCC2)c1N in your reply.
OUTPUT: 83.5

INPUT: Supply measured growth inhibition of O=c1[nH]c(Cc2ccccc2)nc2c1sc1nc3ccccc3n12 in your reply.
OUTPUT: -7.45

INPUT: Supply measured growth inhibition of CN1COc2c(Cl)cc(Cl)cc2C1 in your reply.
OUTPUT: 42.5

INPUT: Supply measured growth inhibition of Cc1cc(CN(Cc2ccccc2)Cc2nc3ccccc3[nH]2)c(O)c(CN(Cc2nc3ccccc3[nH]2)Cc2nc3ccccc3[nH]2)c1 in your reply.
OUTPUT: 93.3

INPUT: Supply measured growth inhibition of Cc1nc(-c2ccc(N=Cc3ccc(N(CCOS(C)(=O)=O)CCOS(C)(=O)=O)cc3)cc2)cs1 in your reply.
OUTPUT: 71.8

INPUT: Supply measured growth inhibition of Cc1cc(NC(=S)SCc2ccc3c(c2)OCO3)ccc1Br in your reply.
OUTPUT: 89.7

INPUT: Supply measured growth inhibition of Cc1c(C)c(C[P+](CCP(c2ccccc2)c2ccccc2)(c2ccccc2)c2ccccc2)c(C)c(C)c1C[P+](CCP(c1ccccc1)c1ccccc1)(c1ccccc1)c1ccccc1 in your reply.
OUTPUT: 35.2

INPUT: Supply measured growth inhibition of CCN(CC)CCC(=O)NC1c2ccc(Cl)cc2Oc2c(C)cccc21 (stereo unspecified) in your reply.
OUTPUT: 17.6

INPUT: Supply measured growth inhibition of CC1=NOC(=O)/C1=C/c1ccc(Cl)c(Cl)c1 in your reply.
OUTPUT: 43.1

INPUT: Supply measured growth inhibition of Clc1ccc(Oc2nc(Cl)nc3[nH]ncc23)cc1 in your reply.
OUTPUT: 40.1

INPUT: Supply measured growth inhibition of O=c1cc(-c2ccccc2)oc2ccc(-c3ccc4oc(-c5ccccc5)cc(=O)c4c3)cc12 in your reply.
OUTPUT: 87.8

INPUT: Supply measured growth inhibition of CC(NC(=O)OC(C)(C)C)C(=O)NC(Cc1ccccc1)C(=O)NCC(=O)Oc1c(Cl)c(Cl)c(Cl)c(Cl)c1Cl (stereo unspecified) in your reply.
OUTPUT: 73.4

INPUT: Supply measured growth inhibition of O=CC(=O)CC(O)CO (stereo unspecified) in your reply.
OUTPUT: 76.3

INPUT: Supply measured growth inhibition of O=C(Cc1csc2[n+]1C(=O)/C(=C/c1cccc([N+](=O)[O-])c1)S2)Nc1ccccc1 in your reply.
OUTPUT: 33.9

INPUT: Supply measured growth inhibition of CCCCc1c2c(nc3c1CC/C(=C\c1ccccc1)C3=O)CCCC2 in your reply.
OUTPUT: 49.7

INPUT: Supply measured growth inhibition of CCOC(=O)/C=C1/C(=O)OC2C1OC1OC(C)(C)OC12 (stereo unspecified) in your reply.
OUTPUT: 54.8

INPUT: Supply measured growth inhibition of COc1ccc2ccc(/C=C/[N+](=O)[O-])cc2c1OC in your reply.
OUTPUT: 67.6

INPUT: Supply measured growth inhibition of CCCCCCCCCCCCNCC(=O)O in your reply.
OUTPUT: 92

INPUT: Supply measured growth inhibition of Fc1ccc(CSC(=S)Nc2ccc(Br)cc2)cc1 in your reply.
OUTPUT: 95.5

INPUT: Supply measured growth inhibition of COC1OC2=CCC3C(=O)NC(=O)C3C2[C@H](OCc2ccccc2)C1OCc1ccccc1 (stereo partly specified) in your reply.
OUTPUT: 98.9

INPUT: Supply measured growth inhibition of CC12CCC(O)CC1=CCC1C2CCC2(C)C(NC(=O)C(Cc3ccc(O)cc3)NC(=O)OCc3ccccc3)CCC12 (stereo unspecified) in your reply.
OUTPUT: -8.2

INPUT: Supply measured growth inhibition of c1ccc(CN(CCCOc2ccccc2)Cc2ccccc2)cc1 in your reply.
OUTPUT: 80.5

INPUT: Supply measured growth inhibition of CCCCCC1OC(CCCCC)OC(CCCCC)O1 (stereo unspecified) in your reply.
OUTPUT: 11.7

INPUT: Supply measured growth inhibition of COc1ccccc1C(=O)N(Cc1ccccc1)c1ccc(Cl)c(C(=O)OC(C)C)c1 in your reply.
OUTPUT: 19.1

INPUT: Supply measured growth inhibition of CN(C)CCCNc1c2ccccc2nc2ccc(F)cc12 in your reply.
OUTPUT: 36.8

INPUT: Supply measured growth inhibition of c1ccc(OCCCOc2ccccc2)cc1 in your reply.
OUTPUT: 61.9

INPUT: Supply measured growth inhibition of COc1ccc(OC2OC(COC(c3ccccc3)(c3ccc(OC)cc3)c3ccc(OC)cc3)C(O)C(O)C2O)cc1 (stereo unspecified) in your reply.
OUTPUT: 96.7

INPUT: Supply measured growth inhibition of C(/Cc1ccc2c(c1)OCO2)=N\NC1=NCCCCN1 in your reply.
OUTPUT: -6.5

INPUT: Supply measured growth inhibition of CC(C)c1cc(=O)c2cc3[nH]c4ccccc4c3cc2[nH]1 in your reply.
OUTPUT: 54.2

INPUT: Supply measured growth inhibition of CN(C)c1ccc(/C=C/c2nc3ccccc3[nH]2)cc1 in your reply.
OUTPUT: 80

INPUT: Supply measured growth inhibition of CC1COC(c2cn[nH]c2C(N)=O)C1O (stereo unspecified) in your reply.
OUTPUT: 7.65

INPUT: Supply measured growth inhibition of Nc1[nH]cnc(=S)c1NC=O in your reply.
OUTPUT: -1.9

INPUT: Supply measured growth inhibition of CC(CC(C)[C@H]1CCC2[C@H]3C(CC[C@@]21C)[C@@]1(C)CCC(O)C[C@H]1C[C@@H]3O)C(=O)O (stereo partly specified) in your reply.
OUTPUT: 98.2

INPUT: Supply measured growth inhibition of Cc1ccccc1N=NC(C(=O)c1ccccc1)C(=O)c1ccccc1 in your reply.
OUTPUT: 91.8

INPUT: Supply measured growth inhibition of COc1cc2c(c(OC)c1OC)-c1ccc(SC)c(=O)cc1[C@@H](NC(=O)Oc1ccccc1)CC2 in your reply.
OUTPUT: 12.6

INPUT: Supply measured growth inhibition of OC(c1ccccc1)(c1ccccc1)C1CCCCC1 in your reply.
OUTPUT: 9.9
